MIC: recorded values
Test system: Escherichia coli TK-3113 strain producing IMP-8 (strain D)
Assay: MIC of test compound alone or with β-lactamase inhibitor at 4 μg/mL
Assay type: cell-based
Conditions: NAC added at 4 μg/mL

Please review the following examples before continuing.
Nc1nc(/C(=N/OC2(C(=O)O)CCC2)C(=O)N[C@@H]2C(=O)N3C[C@@](C(=O)O)(N4CCN(NC(=O)C(=O)c5ccc(O)c(O)c5Cl)C4=O)S[C@H]23)cs1; <0.015 µg/mL
CC(C)(O/N=C(\C(=O)N[C@@H]1C(=O)N2C[C@@](C(=O)O)(N3CCN(NC(=O)C(=O)c4ccc(O)c(O)c4Cl)C3=O)S[C@H]12)c1csc(N)n1)C(=O)O; 0.06 µg/mL
Nc1nc(/C(=N/OC2(C(=O)O)CC2)C(=O)N[C@@H]2C(=O)N3C[C@@](C(=O)O)(N4CCN(NC(=O)C(=O)c5ccc(O)c(O)c5Cl)C4=O)S[C@H]23)cs1; <0.015 µg/mL

Next compound, please.
Prompt: GET /values?readout=MIC&item= `CC(C)(O/N=C(\C(=O)N[C@@H]1C(=O)N2C[C@@](C(=O)O)(N3CCN(NC(=O)C(=O)c4ccc(O)c(O)c4Cl)C3=O)S[C@H]12)c1nc(N)sc1Cl)C(=O)O`
Completion: 0.06 µg/mL

----------
Test system: VIM-2-containing Pseudomonas aeruginosa strain (S-3779)
Assay: Antibacterial activity evaluation test, MIC by broth microdilution (CLSI)
Assay type: cell-based
Details: Pseudomonas aeruginosa
measure: MIC

Field: example entries. Status: answers known.
Nc1nc(/C(=N/OC2(C(=O)O)CCC2)C(=O)N[C@@H]2C(=O)N3C[C@@](C(=O)O)(N4CCN(NC(=O)C(=O)c5ccc(O)c(O)c5Cl)C4=O)S[C@H]23)c(Cl)s1; 0.25 µg/mL
CC(C)(O/N=C(\C(=O)NC1C(=O)N2C[C@@](C(=O)O)(N3CCN(NC(=O)C(=O)NNC(=O)C(=O)c4ccc(O)c(O)c4Cl)C3=O)S[C@H]12)c1nc(N)sc1Cl)C(=O)O (some centres unmarked); 0.5 µg/mL
Nc1nc(/C(=N/OC2(C(=O)O)CCC2)C(=O)N[C@@H]2C(=O)N3C[C@@](C(=O)O)(N4CCN(NC(=O)C(=O)c5ccc(O)c(O)c5Cl)C4=O)S[C@H]23)cs1; 0.25 µg/mL
C[C@H]1CN(/N=C/CNC(=O)C(=O)c2ccc(O)c(O)c2Cl)C(=O)N1[C@]1(C(=O)O)CN2C(=O)C(NC(=O)/C(=N\OC(C)(C)C(=O)O)c3csc(N)n3)[C@H]2S1 (some centres unmarked); 1 µg/mL

Turning now to a further compound:
Prompt: Enter reported MIC observed with VIM-2-containing Pseudomonas aeruginosa strain (S-3779) for `CC(C)(O/N=C(\C(=O)N[C@@H]1C(=O)N2C[C@@](C(=O)O)(n3nnc(CNC(=O)c4ccc(O)c(O)c4Cl)n3)S[C@H]12)c1csc(N)n1)C(=O)O`
Completion: 1 µg/mL

----------
System: VIM-2-containing Pseudomonas aeruginosa strain (S-3779)
Experiment: Antibacterial activity evaluation test, MIC by broth microdilution (CLSI)
Format: cell-based
Conditions: Pseudomonas aeruginosa
measure: MIC (µg/mL)
The reply should contain only the number, in µg/mL.

Nc1nc(/C(=N/OC2(C(=O)O)CC2)C(=O)N[C@@H]2C(=O)N3C[C@@](C(=O)O)(N4CCN(NC(=O)C(=O)c5ccc(O)c(O)c5Cl)C4=O)S[C@H]23)cs1 [Example 21]; 0.5
CC(C)(O/N=C(\C(=O)NC1C(=O)N2C[C@@](C(=O)O)(N3CCN(NC(=O)C(=O)NCCNC(=O)C(=O)c4ccc(O)c(O)c4Cl)C3=O)S[C@H]12)c1csc(N)n1)C(=O)O (some centres unmarked) [Example 121]; 1
CC(C)(O/N=C(\C(=O)NC1C(=O)N2C[C@@](C(=O)O)(N3CCN(NC(=O)C(=O)c4ccc(O)c(O)c4Cl)C(=O)C3=O)S[C@H]12)c1csc(N)n1)C(=O)O (some centres unmarked) [Example 126]; 1
CCC[C@H](O/N=C(\C(=O)NC1C(=O)N2C[C@@](C(=O)O)(N3CCN(NC(=O)C(=O)c4ccc(O)c(O)c4Cl)C3=O)S[C@H]12)c1csc(N)n1)C(=O)O (some centres unmarked) [Example 115]; 0.5

Let's switch to this compound now.
Prompt: Can you look up the measured MIC of CC(C)(O/N=C(\C(=O)NC1C(=O)N2C[C@@](C(=O)O)(N3CCN(NC(=O)CCNC(=O)/C(=N\O)c4ccc(O)c(O)c4Cl)C3=O)S[C@H]12)c1csc(N)n1)C(=O)O (some centres unmarked) [Example 122] for me?
Completion: 2

----------
Tested on: Pseudomonas aeruginosa strain ATCC27853
Experiment: Antibacterial activity evaluation test, MIC by broth microdilution (CLSI)
Type: cell-based
Conditions: Pseudomonas aeruginosa, ATCC27853
Description: The minimum inhibitory concentration (MIC) was measured according to the Clinical and Laboratory Standards Institute (CLSI) standard method by using the following broth microdilution method. […]
measure: Antibacterial activity (MIC) Pseudomonas aeruginosa ATCC 27853 (µg/mL)
Give the quantity in µg/mL, number only.

CC(C)(O/N=C(\C(=O)NC1C(=O)N2C[C@@](C(=O)O)(N3CCN(NC(=O)C(=O)c4c(F)cc(O)c(O)c4Cl)C3=O)S[C@H]12)c1csc(N)n1)C(=O)O (stereo partly drawn); 0.5
CC(C)(O/N=C(\C(=O)NC1C(=O)N2C[C@@](C(=O)O)(N3CCN(NC(=O)C(=O)c4cc(O)c(O)cc4F)C3=O)S[C@H]12)c1csc(N)n1)C(=O)O (stereo partly drawn); 1

Now for a further compound.
Prompt: Using the record for CC(C)(O/N=C(\C(=O)NC1C(=O)N2C[C@@](C(=O)O)(N3CCN(NC(=O)NNC(=O)C(=O)c4ccc(O)c(O)c4Cl)C3=O)S[C@H]12)c1csc(N)n1)C(=O)O (stereo partly drawn) , report its Antibacterial activity (MIC) Pseudomonas aeruginosa ATCC 27853.
Completion: 0.5

----------
Test system: Escherichia coli TK-1765 strain producing CMY-2 (strain E)
Experiment: MIC of test compound alone or with β-lactamase inhibitor at 4 μg/mL
Assay type: cell-based
Conditions: with SBT at 4 μg/mL
measure: MIC (µg/mL)
Lab book: enter the figure in µg/mL, no units written.

CC(C)(O/N=C(\C(=O)N[C@@H]1C(=O)N2C[C@@](C(=O)O)(N3CCN(NC(=O)C(=O)c4ccc(O)c(O)c4Cl)C3=O)S[C@H]12)c1csc(N)n1)C(=O)O; 0.5
Nc1nc(/C(=N/OC2(C(=O)O)CC2)C(=O)N[C@@H]2C(=O)N3C[C@@](C(=O)O)(N4CCN(NC(=O)C(=O)c5ccc(O)c(O)c5Cl)C4=O)S[C@H]23)cs1; 0.5
CC(C)(O/N=C(\C(=O)N[C@@H]1C(=O)N2C[C@@](C(=O)O)(N3CCN(NC(=O)C(=O)c4ccc(O)c(O)c4Cl)C3=O)S[C@H]12)c1nc(N)sc1Cl)C(=O)O; 0.25

Could you now look at the following molecule, please?
Prompt: Sample `Nc1nc(/C(=N/OC2(C(=O)O)CCC2)C(=O)N[C@@H]2C(=O)N3C[C@@](C(=O)O)(N4CCN(NC(=O)C(=O)c5ccc(O)c(O)c5Cl)C4=O)S[C@H]23)cs1` — what was its MIC?
Completion: 0.5

----------
Test system: Escherichia coli TK-1765 strain producing CMY-2 (strain E)
Assay: MIC of test compound alone or with β-lactamase inhibitor at 4 μg/mL
Type: cell-based
Settings: with TAZ at 4 μg/mL
measure: MIC (µg/mL)
Number in µg/mL, nothing else.

Prompt: Would you kindly share the measured MIC for `CC(C)(O/N=C(\C(=O)N[C@@H]1C(=O)N2C[C@@](C(=O)O)(N3CCN(NC(=O)C(=O)c4ccc(O)c(O)c4Cl)C3=O)S[C@H]12)c1csc(N)n1)C(=O)O` ?
Completion: 0.25

Prompt: What value of measured MIC is listed for `Nc1nc(/C(=N/OC2(C(=O)O)CC2)C(=O)N[C@@H]2C(=O)N3C[C@@](C(=O)O)(N4CCN(NC(=O)C(=O)c5ccc(O)c(O)c5Cl)C4=O)S[C@H]23)cs1` ?
Completion: 0.25

Prompt: I have this compound here, `Nc1nc(/C(=N/OC2(C(=O)O)CCC2)C(=O)N[C@@H]2C(=O)N3C[C@@](C(=O)O)(N4CCN(NC(=O)C(=O)c5ccc(O)c(O)c5Cl)C4=O)S[C@H]23)cs1` , and I need its recorded MIC.
Completion: 0.12

Prompt: So what does the record say about MIC for `CC(C)(O/N=C(\C(=O)N[C@@H]1C(=O)N2C[C@@](C(=O)O)(N3CCN(NC(=O)C(=O)c4ccc(O)c(O)c4Cl)C3=O)S[C@H]12)c1nc(N)sc1Cl)C(=O)O` ?
Completion: 0.06

All figures here come from patent US20220241249A1.
